These entries and their values trace back to ChEMBL document CHEMBL4390674.

# measurement_target: Mu-type opioid receptor (Homo sapiens, UniProt P35372)
# Sequence (P35372 whole entry): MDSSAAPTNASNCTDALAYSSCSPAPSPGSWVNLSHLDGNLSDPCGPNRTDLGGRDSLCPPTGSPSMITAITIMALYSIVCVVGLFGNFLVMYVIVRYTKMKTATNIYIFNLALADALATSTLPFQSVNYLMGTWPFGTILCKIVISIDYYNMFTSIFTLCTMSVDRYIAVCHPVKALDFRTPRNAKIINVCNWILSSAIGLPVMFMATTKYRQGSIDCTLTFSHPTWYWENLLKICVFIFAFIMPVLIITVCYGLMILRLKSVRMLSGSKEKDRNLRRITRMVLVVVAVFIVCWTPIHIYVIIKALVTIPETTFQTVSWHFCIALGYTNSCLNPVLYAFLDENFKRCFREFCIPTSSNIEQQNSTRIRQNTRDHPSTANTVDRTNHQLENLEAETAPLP
# test: Displacement of [3H]-DAMGO from recombinant human MOR stably expressed in HEK cells measured after 90 mins by microbeta scintillation counting method
Ki listing for selected compounds.

Field: example entries. Status: answers known.
FC(F)(F)c1cc(Oc2nccc3occc23)ccc1-c1cccc2nccn12	4.4 µM
Cc1ncc2nccn2c1-c1ccc(Oc2nccc3occc23)cc1C(F)(F)F	9.4 µM
FC(F)(F)c1cc(Oc2nccc3ccsc23)ccc1-c1cccc2nccn12	2.1 µM

Then this compound:
Case `Cc1cc(Oc2nccc3occc23)ccc1-c1c(C)ncc2nccn12` , Mu-type opioid receptor (Homo sapiens, UniProt P35372), Ki recorded as 8.2 µM
